These entries and their values trace back to PubChem BioAssay (NCI).

measurement_notes: NCI Yeast Anticancer Drug Screen. Data for the rad50 strain (AID 155);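 also: 0% = growth of vehicle-only cultures of the same strain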
measurement_parameters: S. cerevisiae rad50 strain growth inhibition; at 50.0 µM; active compounds read high
About 79,000 compounds went through this panel and 15% of them were active in at least one assay; those are over-represented in the sample as a whole.
value_type: growth inhibition (%)
A number alone suffices; assume %.

{"compound": "O=C(SCSC(=O)c1ccccc1)c1ccccc1", "reported_result": -11.3}
{"compound": "CCCCCc1ccccn1", "reported_result": 0.9}
{"compound": "N/N=C(/Cc1nc2ccc(C(=O)c3ccccc3)cc2[nH]c1=O)C(=O)Nc1ccc([N+](=O)[O-])cc1[N+](=O)[O-]", "reported_result": 23.4}
{"compound": "CCN(CC)CC(C)(C)C(O)c1ccc(OC)c2ccccc12 (stereo unspecified)", "reported_result": -6.15}
{"compound": "Cc1cccc(Cl)c1NC(=O)Nc1ccc(C#N)cc1", "reported_result": 15.4}

Challenge: Entry under review: CCN(CC)CCSC(=O)C(O)(c1ccccc1)c1cccc(C)c1 (stereo unspecified) . Reported growth inhibition?
Response given: 9.1

Challenge: Same again, this time with O=C(O)c1ccccc1C(NC(=O)N1C(=O)C=CC1=O)NC(=O)N1C(=O)C=CC1=O
Response given: 29.2

Challenge: Then CCCCCCCCOc1ccc(C=Nc2ccc(C)cc2)cc1 ?
Response given: -2.05

---

measurement_notes: NCI Yeast Anticancer Drug Screen. Data for the bub3 strain (AID 167)
measurement_parameters: S. cerevisiae bub3 mutant strain, at 50.0 µM
Compounds without any hit were thinned out: in the full panel of roughly 79,000, 15% have a hit. Activity calls are given as the source filed them. No stated cut-off is given here; in the data, active means growth inhibition above about 70%; inactive means the rest.
Bench note: report the call from Yes (active), No (inactive)

// below: answered compounds
{"compound": "C1CC(CCC2CCNCC2)CCN1", "assigned_class": "No"}
{"compound": "COC(=O)Cc1c(C(=O)OC)c(O)cc(O)c1C(=O)OC", "assigned_class": "No"}
{"compound": "COc1ccccc1CC(C)N1CCCC1c1ccccc1 (stereo not given)", "assigned_class": "No"}

Challenge: Please indicate how the test categorized O=C(O)c1ccccc1C(NC(=O)N1C(=O)C=CC1=O)NC(=O)N1C(=O)C=CC1=O .
Response given: No

---

measurement_notes: NCI Yeast Anticancer Drug Screen. Data for the rad50 strain (AID 155);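 also: 0% = growth of vehicle-only cultures of the same strain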
measurement_parameters: S. cerevisiae rad50 strain growth inhibition; at 50.0 µM
Protocol: Growth inhibition of yeast strains with defined genetic alterations is measured as a screen for potential anti-cancer activity. Selected strains with alterations in DNA damage repair or cell cycle control were exposed to compounds and growth inhibition was measured relative to vehicle treated controls. The strain used in this assay is rad50
About 79,000 compounds went through this panel and 15% of them were active in at least one assay; those are over-represented in the sample as a whole. Activity calls are given as the source filed them. Rule as the data show it: active = growth inhibition above about 70%; inactive = the rest.
Lab note: assign the record to one of true = active, false = inactive

Record excerpt, results attached:
{"compound": "CCCCCCc1c(C)nc(N)[nH]c1=O", "assigned_class": "false"}
{"compound": "CC1=C(C(=O)NCc2ccccc2)C(c2ccccc2C)C(C(=O)NCc2ccccc2)=C(C)N1", "assigned_class": "false"}
{"compound": "Cn1ccccc1=O", "assigned_class": "false"}
{"compound": "O=C(Nc1ccc(Cl)cc1)/C(Cc1cccc[n+]1[O-])=N\\Nc1ccc([N+](=O)[O-])cc1[N+](=O)[O-]", "assigned_class": "false"}
{"compound": "CSc1ccc(NC(=O)c2cccc([N+](=O)[O-])c2C(=O)O)cc1", "assigned_class": "false"}

Challenge: // param item: Cc1ncc(CO)c(/C=N\Nc2ccc([N+](=O)[O-])cc2[N+](=O)[O-])c1O ; yields the recorded call
Response given: false

Challenge: Then this compound: CC1=CC(O)C(Br)C(C)(C)C12CCC(C)(Cl)C(Br)C2 (stereo not given)
Response given: true

Challenge: Another: O=c1cc(O)nc2cn[nH]n12
Response given: false
